- study-system: h5-HT7 (Homo sapiens, UniProt P34969)
- Sequence (P34969 whole entry): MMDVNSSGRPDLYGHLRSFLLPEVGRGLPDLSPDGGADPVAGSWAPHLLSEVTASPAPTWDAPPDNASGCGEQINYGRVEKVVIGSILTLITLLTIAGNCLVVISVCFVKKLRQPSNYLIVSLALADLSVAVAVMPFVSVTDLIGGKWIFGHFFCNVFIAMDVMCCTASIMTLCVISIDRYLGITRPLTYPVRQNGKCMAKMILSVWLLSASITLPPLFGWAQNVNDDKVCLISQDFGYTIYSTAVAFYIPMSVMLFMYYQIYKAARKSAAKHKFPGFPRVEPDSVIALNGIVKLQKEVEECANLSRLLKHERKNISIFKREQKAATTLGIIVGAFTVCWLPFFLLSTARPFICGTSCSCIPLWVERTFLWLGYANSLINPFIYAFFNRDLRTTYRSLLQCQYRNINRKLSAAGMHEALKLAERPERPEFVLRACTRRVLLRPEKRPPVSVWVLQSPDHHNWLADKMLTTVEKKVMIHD
quantity-kind: Ki (nM)
I only need the number, in nM, no unit after it.

In: For the record c1ccc(-c2ccccc2N2CCNCC2)cc1 , what value of Ki is listed for h5-HT7 (Homo sapiens, UniProt P34969)?
Out: 1.4

----------
Parameter 'readout' = Ki; parameter 'system' = h5-HT2A (Homo sapiens, UniProt P28223).
Sequence (P28223 whole entry): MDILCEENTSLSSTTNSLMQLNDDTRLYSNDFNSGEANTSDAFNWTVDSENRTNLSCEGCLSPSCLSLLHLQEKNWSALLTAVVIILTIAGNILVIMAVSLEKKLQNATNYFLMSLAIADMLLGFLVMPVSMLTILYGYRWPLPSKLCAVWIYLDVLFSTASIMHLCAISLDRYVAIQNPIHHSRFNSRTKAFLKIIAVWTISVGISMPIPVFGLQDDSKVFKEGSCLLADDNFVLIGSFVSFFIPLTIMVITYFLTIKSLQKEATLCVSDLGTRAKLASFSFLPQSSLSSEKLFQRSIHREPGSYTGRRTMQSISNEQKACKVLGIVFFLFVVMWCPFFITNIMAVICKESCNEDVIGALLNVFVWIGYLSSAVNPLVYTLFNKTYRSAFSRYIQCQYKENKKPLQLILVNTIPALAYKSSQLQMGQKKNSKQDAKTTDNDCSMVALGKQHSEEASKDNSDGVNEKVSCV
The response must be a number in nM with no trailing unit.

• c1ccc(-c2ccccc2N2CCNCC2)cc1 [RA-7, 1-(2-diphenyl)piperazine] = 1190

Continue with the compound presented below.
In: Record N#Cc1ccc(CNC(=O)CCCCCN2CCN(c3ccccc3-c3ccccc3)CC2)cc1 [LP-211] : what is its Ki with h5-HT2A (Homo sapiens, UniProt P28223)?
Out: 626

----------
- study-system: UniProt:P08908
- assay-text: Competition radioligand binding
- condition-notes: 0.5 nM [3H]8-OH-DPAT; mean ± S.E.M.
Reported values of Ki for individual entries
Your answer should be a plain number; it is taken to be in nM.

• N#Cc1ccc(CNC(=O)CCCCCN2CCN(c3ccccc3-c3ccccc3)CC2)cc1 = 379

Pending molecule:
In: Entry c1ccc(-c2ccccc2N2CCNCC2)cc1 : reported Ki = ?
Out: 99

----------
Assay read-out pKi; system under study: h5-HT1B (Homo sapiens, UniProt P28222).
Sequence (P28222 whole entry): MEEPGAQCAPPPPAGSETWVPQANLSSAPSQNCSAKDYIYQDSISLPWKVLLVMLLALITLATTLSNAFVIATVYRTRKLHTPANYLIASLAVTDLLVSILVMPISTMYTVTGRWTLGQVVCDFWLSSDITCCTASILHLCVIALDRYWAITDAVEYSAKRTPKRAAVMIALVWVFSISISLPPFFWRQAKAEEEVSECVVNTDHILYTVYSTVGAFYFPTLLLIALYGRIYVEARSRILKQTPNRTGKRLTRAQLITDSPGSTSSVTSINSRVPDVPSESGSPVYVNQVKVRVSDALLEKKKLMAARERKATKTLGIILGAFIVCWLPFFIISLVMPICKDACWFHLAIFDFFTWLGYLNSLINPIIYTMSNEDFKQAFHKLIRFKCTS
Notebook: values listed as pKi are -log10 of the concentration (mol/L).

* c1ccc(-c2ccccc2N2CCNCC2)cc1 | 5.99

In: Fill in: pKi of N#Cc1ccc(CNC(=O)CCCCCN2CCN(c3ccccc3-c3ccccc3)CC2)cc1 is ___
Out: 6.67

----------
- study-system: r5-HT2C (Rattus norvegicus)
- Sequence (P08909 33-460): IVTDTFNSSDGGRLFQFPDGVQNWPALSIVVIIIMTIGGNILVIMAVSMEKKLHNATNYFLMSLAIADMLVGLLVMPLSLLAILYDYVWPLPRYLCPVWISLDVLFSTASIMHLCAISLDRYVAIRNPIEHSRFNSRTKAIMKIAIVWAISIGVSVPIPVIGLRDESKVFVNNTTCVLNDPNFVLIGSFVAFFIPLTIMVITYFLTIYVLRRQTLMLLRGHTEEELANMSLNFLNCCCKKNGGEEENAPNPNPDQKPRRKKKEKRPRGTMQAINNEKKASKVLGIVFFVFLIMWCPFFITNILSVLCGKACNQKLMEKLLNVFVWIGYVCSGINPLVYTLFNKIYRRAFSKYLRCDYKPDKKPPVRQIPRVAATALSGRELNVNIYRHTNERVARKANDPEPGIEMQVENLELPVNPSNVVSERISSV
quantity-kind: Ki (nM)
Respond numerically; units are nM and should not be typed.

* N#Cc1ccc(CNC(=O)CCCCCN2CCN(c3ccccc3-c3ccccc3)CC2)cc1 | 91

Consider now this further molecule.
In: // Ki lookup, key: c1ccc(-c2ccccc2N2CCNCC2)cc1
Out: 171

----------
- study-system: h5-HT2B (Homo sapiens)
- Sequence (P41595 whole entry): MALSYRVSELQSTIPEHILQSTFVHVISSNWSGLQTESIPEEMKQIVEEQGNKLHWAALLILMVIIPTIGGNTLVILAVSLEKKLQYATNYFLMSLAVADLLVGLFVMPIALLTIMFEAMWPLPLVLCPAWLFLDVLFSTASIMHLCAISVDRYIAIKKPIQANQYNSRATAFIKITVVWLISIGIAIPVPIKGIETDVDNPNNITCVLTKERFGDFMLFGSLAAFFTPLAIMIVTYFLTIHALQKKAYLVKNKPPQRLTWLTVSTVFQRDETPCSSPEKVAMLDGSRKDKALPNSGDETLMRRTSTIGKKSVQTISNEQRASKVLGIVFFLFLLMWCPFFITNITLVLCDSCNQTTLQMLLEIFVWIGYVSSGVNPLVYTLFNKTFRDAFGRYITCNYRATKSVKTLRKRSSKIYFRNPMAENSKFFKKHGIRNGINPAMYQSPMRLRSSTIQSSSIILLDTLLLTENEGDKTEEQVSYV
- assay-text: Competition radioligand binding
- condition-notes: 1.0 nM [3H]LSD; mean ± S.E.M.
Below, each of the molecules is paired with its reported Ki value.
# unit: nM | format: bare number

• c1ccc(-c2ccccc2N2CCNCC2)cc1 = 178

Turning to the following molecule.
In: Value lookup for Ki; key = N#Cc1ccc(CNC(=O)CCCCCN2CCN(c3ccccc3-c3ccccc3)CC2)cc1
Out: 67

----------
Reported Ki for target or system h5-ht1E (Homo sapiens, UniProt P28566), by entry.

In: Notebook entry, h5-ht1E (Homo sapiens, UniProt P28566) assay: Ki of N#Cc1ccc(CNC(=O)CCCCCN2CCN(c3ccccc3-c3ccccc3)CC2)cc1 [LP-211] = ?
Out: > 10 µM

In: Test system h5-ht1E (Homo sapiens, UniProt P28566); read-out Ki; what value for c1ccc(-c2ccccc2N2CCNCC2)cc1 [RA-7, 1-(2-diphenyl)piperazine] ?
Out: > 10 µM

----------
- study-system: h5-ht5A (Homo sapiens)
- Sequence (P47898 whole entry): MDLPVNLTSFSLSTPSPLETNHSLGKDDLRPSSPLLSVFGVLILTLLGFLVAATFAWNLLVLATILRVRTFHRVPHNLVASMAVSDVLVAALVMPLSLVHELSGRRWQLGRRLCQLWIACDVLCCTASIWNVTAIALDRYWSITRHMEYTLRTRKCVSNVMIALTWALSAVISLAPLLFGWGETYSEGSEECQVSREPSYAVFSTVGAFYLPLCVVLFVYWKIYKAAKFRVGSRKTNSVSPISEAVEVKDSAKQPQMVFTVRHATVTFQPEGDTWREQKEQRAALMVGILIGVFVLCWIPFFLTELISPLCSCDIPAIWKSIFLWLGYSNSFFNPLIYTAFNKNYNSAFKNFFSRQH
quantity-kind: pKi
// returns pKi (minus log10 of molar concentration), number only

- N#Cc1ccc(CNC(=O)CCCCCN2CCN(c3ccccc3-c3ccccc3)CC2)cc1: 6.75

Here is the next item to consider.
In: Would you mind telling me what pKi value was observed for c1ccc(-c2ccccc2N2CCNCC2)cc1 ?
Out: 7.12

----------
- study-system: hSERT (Homo sapiens)
- Sequence (P31645 whole entry): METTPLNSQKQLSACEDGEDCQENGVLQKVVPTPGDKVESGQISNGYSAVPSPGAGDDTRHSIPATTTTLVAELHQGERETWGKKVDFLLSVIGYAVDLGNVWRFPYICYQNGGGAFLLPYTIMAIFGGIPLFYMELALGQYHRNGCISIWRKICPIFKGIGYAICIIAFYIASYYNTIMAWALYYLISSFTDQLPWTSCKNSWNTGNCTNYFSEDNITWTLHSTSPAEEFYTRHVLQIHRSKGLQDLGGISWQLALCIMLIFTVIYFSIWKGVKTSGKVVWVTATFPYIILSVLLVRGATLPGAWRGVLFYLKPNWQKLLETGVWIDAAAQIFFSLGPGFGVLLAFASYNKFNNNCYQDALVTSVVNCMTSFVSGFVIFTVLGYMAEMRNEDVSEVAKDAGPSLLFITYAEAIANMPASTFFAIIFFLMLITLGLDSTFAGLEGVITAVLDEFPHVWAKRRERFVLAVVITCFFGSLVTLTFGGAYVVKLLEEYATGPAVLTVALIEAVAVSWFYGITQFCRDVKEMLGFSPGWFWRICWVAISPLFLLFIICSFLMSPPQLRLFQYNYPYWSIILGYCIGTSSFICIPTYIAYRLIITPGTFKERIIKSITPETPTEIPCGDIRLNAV
quantity-kind: Ki (nM)
Give the value in nM but do not write nM after it.

* c1ccc(-c2ccccc2N2CCNCC2)cc1 | 439

Okay, next one:
In: Form field: Ki recorded for N#Cc1ccc(CNC(=O)CCCCCN2CCN(c3ccccc3-c3ccccc3)CC2)cc1 with hSERT (Homo sapiens) (enter value)
Out: 812

----------
- study-system: h5-HT1A (Homo sapiens)
- Sequence (P08908 whole entry): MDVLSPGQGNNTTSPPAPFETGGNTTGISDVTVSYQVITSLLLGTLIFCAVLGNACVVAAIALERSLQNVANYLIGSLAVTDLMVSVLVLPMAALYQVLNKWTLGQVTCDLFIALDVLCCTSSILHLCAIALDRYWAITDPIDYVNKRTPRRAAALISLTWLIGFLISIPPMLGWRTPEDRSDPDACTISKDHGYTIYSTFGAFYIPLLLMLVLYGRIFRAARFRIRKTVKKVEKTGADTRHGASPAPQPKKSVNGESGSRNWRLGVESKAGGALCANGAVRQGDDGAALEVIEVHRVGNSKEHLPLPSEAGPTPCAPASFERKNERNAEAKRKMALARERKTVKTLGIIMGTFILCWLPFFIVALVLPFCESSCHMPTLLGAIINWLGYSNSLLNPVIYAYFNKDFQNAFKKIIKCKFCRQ
- assay-text: Competition radioligand binding
quantity-kind: pKi
API: returns pKi as number; meaning -log10 of concentration in mol/L.

In: Quick check: pKi of CC[C@@H](CO)NC(=O)[C@@H]1C=C2c3cccc4c3c(cn4C)C[C@H]2N(C)C1 [Methysergide, reference compound] ?
Out: 7.42

----------
- study-system: h5-HT6 (Homo sapiens)
- Sequence (P50406 whole entry): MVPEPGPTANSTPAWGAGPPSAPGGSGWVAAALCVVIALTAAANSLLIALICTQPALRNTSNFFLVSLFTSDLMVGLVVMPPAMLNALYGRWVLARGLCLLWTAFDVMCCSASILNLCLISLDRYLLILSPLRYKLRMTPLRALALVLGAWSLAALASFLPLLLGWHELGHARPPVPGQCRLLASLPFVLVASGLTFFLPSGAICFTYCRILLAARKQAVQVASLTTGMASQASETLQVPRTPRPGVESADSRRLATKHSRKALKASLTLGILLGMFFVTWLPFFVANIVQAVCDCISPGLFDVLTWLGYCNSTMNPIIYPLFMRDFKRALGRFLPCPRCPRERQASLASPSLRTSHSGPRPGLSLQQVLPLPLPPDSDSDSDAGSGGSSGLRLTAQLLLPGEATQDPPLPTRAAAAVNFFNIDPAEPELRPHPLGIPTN
quantity-kind: Ki (µM)
Hi! Could you send only the number? It should be in µM, unit omitted.

* c1ccc(-c2ccccc2N2CCNCC2)cc1 [RA-7, 1-(2-diphenyl)piperazine] | 0.596

In: # value lookup — system h5-HT6 (Homo sapiens), readout Ki, item N#Cc1ccc(CNC(=O)CCCCCN2CCN(c3ccccc3-c3ccccc3)CC2)cc1 [LP-211]
Out: 1.57
